// reported viability, T/C per item
Tested on: 435261-313-R-J1-PDC tumor spheroid viability
Assay: Anticancer human tumor 435261-313-R-J1-PDC patient-derived colon adenocarcinoma cell line growth inhibition [PI3K]
Settings: compound 10 µM; stronger effect = lower value; spheroids with HUVEC and MSC
readoutType: viability, T/C

>>> testvalue("Cn1nccc1Nc1nccc(-c2ccn(C(CO)c3ccc(Cl)c(F)c3)c(=O)c2)n1 (centres undefined)")
"18.4% [middle of 4 runs]"
>>> testvalue("C=CC(=O)N1CCN(c2nc(=O)n(-c3c(C)ccnc3C(C)C)c3nc(-c4c(O)cccc4F)c(F)cc23)C(C)C1 (centres undefined)")
"109% [middle of 4 runs]"
>>> testvalue("Cc1nc(NC(=O)N2CCCC2C(N)=O)sc1-c1ccnc(C(C)(C)C(F)(F)F)c1 (centres undefined)")
"7% [middle of 6 runs]"
>>> testvalue("CC1(C)CCC(Nc2ncc(C(F)(F)F)c(-c3c[nH]c4c(P(C)(C)=O)c(C#N)ccc34)n2)CN1 (centres undefined)")
"1.48% [middle of 4 runs]"

###

Test system: 435261-313-R-J1-PDC tumor spheroid viability
Experiment: Anticancer human tumor 435261-313-R-J1-PDC cell line growth inhibition [PI3K];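 further: spheroids exposed to compounds for 7 days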
Conditions: compound 0.316 µM; stronger effect = lower value; spheroids with HUVEC and MSC
readoutType: viability, T/C

>>> testvalue("C=CC(=O)N1CCN(c2nc(=O)n(-c3c(C)ccnc3C(C)C)c3nc(-c4c(O)cccc4F)c(F)cc23)C(C)C1 (stereo not given)")
"109% [middle of 4 runs]"
>>> testvalue("COc1c(OCCCN2CCOCC2)ccc2c3n(c(=NC(=O)c4cnc(N)nc4)nc12)CCN3")
"8.17% [middle of 6 runs]"
>>> testvalue("Cc1nc(NC(=O)N2CCCC2C(N)=O)sc1-c1ccnc(C(C)(C)C(F)(F)F)c1 (stereo not given)")
"64.4% [middle of 6 runs]"
>>> testvalue("CC(Nc1ccc2c(c1)OCCn1cc(N3C(=O)OCC3C(F)F)nc1-2)C(N)=O (stereo not given)")
"23.1% [middle of 7 runs]"
>>> testvalue("Cn1nccc1Nc1nccc(-c2ccn(C(CO)c3ccc(Cl)c(F)c3)c(=O)c2)n1 (stereo not given)")
"68.2% [middle of 4 runs]"

###

System: 435261-313-R-J1-PDC tumor spheroid viability
Experiment: Anticancer human tumor 435261-313-R-J1-PDC cell line growth inhibition [PI3K];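 further: spheroids exposed to compounds for 7 days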
Conditions: second compound 1 µM; first compound 0.0316 µM; stronger effect = lower value; spheroids with HUVEC and MSC
Please respond with TRUE when measured viability, T/C is strictly beneath 20%, and with FALSE in all other cases.

>>> category("Cn1ncc(Cl)c1-c1cc(C(=O)NC(CN)Cc2cccc(F)c2)sc1Cl (configuration not stated) + CC(Nc1ccc2c(c1)OCCn1cc(N3C(=O)OCC3C(F)F)nc1-2)C(N)=O")
"TRUE"
>>> category("Cn1nccc1Nc1nccc(-c2ccn(C(CO)c3ccc(Cl)c(F)c3)c(=O)c2)n1 (configuration not stated) + Cc1nc(NC(=O)N2CCCC2C(N)=O)sc1-c1ccnc(C(C)(C)C(F)(F)F)c1")
"TRUE"
>>> category("C#Cc1c(F)ccc2cc(O)cc(-c3ncc4c(N5CC6CCC(C5)N6)nc(OCC56CCCN5CC(F)C6)nc4c3F)c12 (configuration not stated) + Cc1nc(NC(=O)N2CCCC2C(N)=O)sc1-c1ccnc(C(C)(C)C(F)(F)F)c1")
"FALSE"
>>> category("C[C@@H](NC(=O)c1ncnc(N)c1Cl)c1ncc(C(=O)Nc2cc(C(F)(F)F)c(Cl)cn2)s1 + CC(Nc1ccc2c(c1)OCCn1cc(N3C(=O)OCC3C(F)F)nc1-2)C(N)=O")
"FALSE"
>>> category("CC(Cn1ccc(-c2ccc(C#N)c(Cl)c2)n1)NC(=O)c1cc(C(C)O)[nH]n1 (configuration not stated) + Cc1nc(NC(=O)N2CCCC2C(N)=O)sc1-c1ccnc(C(C)(C)C(F)(F)F)c1")
"FALSE"
>>> category("Cn1ncc(Cl)c1-c1cc(C(=O)NC(CN)Cc2cccc(F)c2)sc1Cl (configuration not stated) + Cc1nc(NC(=O)N2CCCC2C(N)=O)sc1-c1ccnc(C(C)(C)C(F)(F)F)c1")
"FALSE"
>>> category("Cn1ncnc1[C@H]1c2n[nH]c(=O)c3cc(F)cc(c23)N[C@@H]1c1ccc(F)cc1 + CC(Nc1ncnc2nc[nH]c12)c1cc2cccc(Cl)c2c(=O)n1-c1ccccc1")
"FALSE"
